Quick reference: half-life of the listed items.
PROCEDURE DETAILS: in vitro
Assay type: in vitro ADME
Set-up: dose or concentration left out as unconfirmed
CONDITION DETAILS: simulated intestinal fluid (SIF) with pancreatin, pH 6.8, 37° C., § matrix is 100 fold dilution of standard SIF concentration, read-out: SIF t½ (converted)
Bridge positions count the residues as written; N and C are the ends. Square brackets hold non-standard residues; d marks the D form. Peptide text beside a SMILES is read from it. Trp(7-Me) = Cc1cccc2c(C[C@H](N)C(=O)O)c[nH]c12; 2Nal = N[C@@H](Cc1ccc2ccccc2c1)C(=O)O; AEF = NCCOc1ccc(C[C@H](N)C(=O)O)cc1; Cit = NC(=O)NCCC[C@H](N)C(=O)O; Pen = CC(C)(S)[C@H](N)C(=O)O; αMeK = C[C@](N)(CCCCN)C(=O)O

[
  {
    "COMPOUND": "CC(=O)NCCCC[C@@H]1NC(=O)[C@H](Cc2c[nH]c3c(C)cccc23)NC(=O)[C@H]([C@@H](C)O)NC(=O)[C@H](CC(N)=O)NC(=O)[C@@H](NC(C)=O)C(C)(C)SSC(C)(C)[C@@H](C(=O)N[C@@H](Cc2ccc(OCCN)cc2)C(=O)N[C@@H](Cc2ccc3ccccc3c2)C(=O)N[C@@](C)(CCCCN)C(=O)N[C@@H](CCCCNC(C)=O)C(=O)N[C@@H](CC(N)=O)C(=O)N[C@@H](CCCNC(N)=O)C(N)=O)NC1=O",
    "half-life / h": 7
  },
  {
    "COMPOUND": "CC(=O)NCCCC[C@H](NC(=O)[C@](C)(CCCCN)NC(=O)[C@H](Cc1ccc2ccccc2c1)NC(=O)[C@H](Cc1ccc(OCCN)cc1)NC(=O)[C@H]1NC(=O)[C@H](CCCNC(N)=O)NC(=O)[C@H](Cc2c[nH]c3c(C)cccc23)NC(=O)[C@H]([C@@H](C)O)NC(=O)[C@H](CC(N)=O)NC(=O)[C@@H](NC(C)=O)C(C)(C)SSC1(C)C)C(=O)N[C@@H](CC(N)=O)C(=O)N[C@H](CO)C(N)=O [compound 261] (Ac-[Pen]NT[Trp(7-Me)][Cit][Pen][AEF][2Nal][αMeK]K(Ac)N[dS]-NH2; disulfide 1-6)",
    "half-life / h": 18
  }
]

---

Quick reference: pIC50 of the listed items.
TEST SYSTEM: IL-23R (Homo sapiens)
Sequence (Q5VWK5 24-629): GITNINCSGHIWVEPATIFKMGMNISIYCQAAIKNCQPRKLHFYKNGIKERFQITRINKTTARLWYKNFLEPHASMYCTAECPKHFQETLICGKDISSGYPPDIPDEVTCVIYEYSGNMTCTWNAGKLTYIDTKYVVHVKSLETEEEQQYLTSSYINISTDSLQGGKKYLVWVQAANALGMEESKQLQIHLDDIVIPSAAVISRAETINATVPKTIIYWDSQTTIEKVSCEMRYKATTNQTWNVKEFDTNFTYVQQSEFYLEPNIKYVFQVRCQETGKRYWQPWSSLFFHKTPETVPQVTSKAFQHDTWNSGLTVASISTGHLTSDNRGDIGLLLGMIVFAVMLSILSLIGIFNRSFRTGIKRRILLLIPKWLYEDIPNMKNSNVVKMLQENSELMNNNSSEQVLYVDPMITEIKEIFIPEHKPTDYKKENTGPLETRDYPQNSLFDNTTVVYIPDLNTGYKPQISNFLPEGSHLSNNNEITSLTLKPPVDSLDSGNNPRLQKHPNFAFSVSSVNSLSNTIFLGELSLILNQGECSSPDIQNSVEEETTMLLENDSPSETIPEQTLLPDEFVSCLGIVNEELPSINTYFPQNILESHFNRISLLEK
PROCEDURE DETAILS: DB cells IL23R pSTAT3 cell assay (pStat3 HTRF)
Assay type: cell-based
CONDITION DETAILS: Table E3; DB cells, IL-23 0.5 nM, 30 minutes at 37° C.; read-out: pStat3 HTRF (IC50)
pIC50: −log10 of the molar value. Bridge positions count the residues as written; N and C are the ends. Square brackets hold non-standard residues; d marks the D form. Peptide text beside a SMILES is read from it. Trp(7-Me) = Cc1cccc2c(C[C@H](N)C(=O)O)c[nH]c12; 2Nal = N[C@@H](Cc1ccc2ccccc2c1)C(=O)O; AEF = NCCOc1ccc(C[C@H](N)C(=O)O)cc1; Cit = NC(=O)NCCC[C@H](N)C(=O)O; αMeL = CC(C)C[C@](C)(N)C(=O)O; Pen = CC(C)(S)[C@H](N)C(=O)O; βAla = NCCC(=O)O

[
  {
    "MOLECULE": "CC(=O)NCCCC[C@H](NC(=O)[C@](C)(CCCCN)NC(=O)[C@H](Cc1ccc2ccccc2c1)NC(=O)[C@H](Cc1ccc(OCCN)cc1)NC(=O)[C@H]1NC(=O)[C@H](CCC(N)=O)NC(=O)[C@H](Cc2c[nH]c3cccc(C)c23)NC(=O)[C@H]([C@@H](C)O)NC(=O)[C@H](CC(N)=O)NC(=O)[C@@H](NC(C)=O)C(C)(C)SSC1(C)C)C(=O)N[C@@H](CC(N)=O)C(=O)NCCC(N)=O [compound 231]",
    "pIC50": "8.00 to 9.00"
  },
  {
    "MOLECULE": "CC(=O)NCCCC[C@H](NC(=O)[C@](C)(CC(C)C)NC(=O)[C@H](Cc1ccc2ccccc2c1)NC(=O)[C@H](Cc1ccc(OCCN)cc1)NC(=O)[C@H]1NC(=O)[C@H](CCCNC(N)=O)NC(=O)[C@H](Cc2c[nH]c3c(C)cccc23)NC(=O)[C@H]([C@@H](C)O)NC(=O)[C@H](CC(N)=O)NC(=O)[C@@H](NC(C)=O)C(C)(C)SSC1(C)C)C(=O)N[C@@H](CC(N)=O)C(=O)NCCC(N)=O [compound 227] (Ac-[Pen]NT[Trp(7-Me)][Cit][Pen][AEF][2Nal][αMeL]K(Ac)N[βAla]-NH2; disulfide 1-6)",
    "pIC50": "> 9.00"
  }
]

---

CONDITION DETAILS: 20% human fecal homogenate, 37° C., 20 μM
Bridge positions count the residues as written; N and C are the ends. Square brackets hold non-standard residues; d marks the D form. Peptide text beside a SMILES is read from it. Trp(7-Me) = Cc1cccc2c(C[C@H](N)C(=O)O)c[nH]c12; 2Nal = N[C@@H](Cc1ccc2ccccc2c1)C(=O)O; AEF = NCCOc1ccc(C[C@H](N)C(=O)O)cc1; Cit = NC(=O)NCCC[C@H](N)C(=O)O; Pen = CC(C)(S)[C@H](N)C(=O)O; αMeK = C[C@](N)(CCCCN)C(=O)O; βAla = NCCC(=O)O
PROPERTY: t½: Human Feces anaerobic

[
  {
    "COMPOUND": "CC(=O)NCCCC[C@@H]1NC(=O)[C@H](Cc2c[nH]c3c(C)cccc23)NC(=O)[C@H]([C@@H](C)O)NC(=O)[C@H](CC(N)=O)NC(=O)[C@@H](NC(C)=O)C(C)(C)SSC(C)(C)[C@@H](C(=O)N[C@@H](Cc2ccc(OCCN)cc2)C(=O)N[C@@H](Cc2ccc3ccccc3c2)C(=O)N[C@@](C)(CCCCN)C(=O)N[C@@H](CCCCNC(C)=O)C(=O)N[C@@H](CC(N)=O)C(=O)N[C@H](Cc2ccccc2)C(N)=O)NC1=O",
    "TEST RESULT": ">24 h"
  },
  {
    "COMPOUND": "CC(=O)N[C@@H]1C(=O)N[C@@H](CC(N)=O)C(=O)N[C@@H]([C@@H](C)O)C(=O)N[C@@H](Cc2c[nH]c3c(C)cccc23)C(=O)N[C@@H](CCCNC(N)=O)C(=O)N[C@H](C(=O)N[C@@H](Cc2ccc(OCCN)cc2)C(=O)N[C@@H](Cc2ccc3ccccc3c2)C(=O)N[C@@](C)(CCCCN)C(=O)N[C@@H](CCCNC(N)=O)C(=O)NCCC(=O)NCCC(N)=O)C(C)(C)SSC1(C)C [compound 281] (Ac-[Pen]NT[Trp(7-Me)][Cit][Pen][AEF][2Nal][αMeK][Cit][βAla][βAla]-NH2; disulfide 1-6)",
    "TEST RESULT": ">24 h"
  }
]
